# experimental target: T1, recombinant human OX40-Fc (human, UniProt P43489 29-214)
# T1 construct: also called rh-OX40-Fc; human OX40 hFC (R & D systems)
# T1 sequence: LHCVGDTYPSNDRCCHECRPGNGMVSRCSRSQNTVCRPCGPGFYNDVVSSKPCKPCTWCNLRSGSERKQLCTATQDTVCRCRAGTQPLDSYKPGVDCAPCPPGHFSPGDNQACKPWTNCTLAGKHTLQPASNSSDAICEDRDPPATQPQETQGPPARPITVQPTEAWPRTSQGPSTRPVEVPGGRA
# protocol summary: ELISA, OX40-Fc coated, VHH at 1.6 nM
Reported OD450 values are given for each entry in this list.

binder	OD450
pgXX88-SZ-15 (VHH, not shown: small tags and cut ends) VHH: QVQLVESGGGLVQPGGSLRLSCSPSEGAFKMLTTGWFRQVLGKEREFVSAISWGGGATYYADSVKGRFTVSRDNAKNTVYLQMNSLKPEDTAVYYCAVDTGNGVATNIRSQSRYDYWGQGTQVTVSS	1.66
pgXX88-60 (VHH, not shown: small tags and cut ends) VHH: EVQLVESGGGLAQPGGSLRLSCAASGFTFSNYAMGWYRQAPGKEREFVAAIDWSTNALLYGDSVKGRFTISRDNAKNTVFLQMSGLKPEDTALYYCAADRAYHTVVLGPPEGMDYWGKGTQVTVSS	0.641
pgXX88-81 (VHH, not shown: small tags and cut ends) VHH: EVQLVESGGGLAQPGSSLRLSCTASGTVFSILSATWFRQAPGKAHEARELVAFISSDGVSMHADSVKGRFTISRDNAKSTVYLQMDNLQPEDTAAYYCKLSNSMMGMEYWGRGTQVTVSS	0.743
pgXX88-5 (VHH, not shown: small tags and cut ends) VHH: QVQLVESGGGLVQAGGSLRLSCAASGGTFSTYAMGWFRQAPGKEPQFVARITWSGYTLYTEPVQGRFAISRDNAKNTVYLQMNSLKPEDTAEYFCAADSSEFRDIPNRDSRANYRYWGQGTQVTVSS	0.065
pgXX88-10 (VHH, not shown: small tags and cut ends) VHH: EVQLVESGGGLVQAGESLRLSCSASGSIRLNAVGWFRQAPVNQRLMVATITHNNSTNYADSVQGRFTIARDDAKNTVTLQMNSLKPEDTAVYMCKVYQLPVPISSHDDYWGQGTQVTVSS	1.46
pgXX88-27 (VHH, not shown: small tags and cut ends) VHH: EVQLVESGGGLVQPGGSVTLSCATSKDTFSRYHMGWFRQAAGKEREFVAAIANTGTTTDYADFVKGRFTISRDSAKNTVYLQMDSLKVEDTAMYYCVVGSQFMSYDYWGQGTQVTVSS	1.02
pgXX88-83 (VHH, not shown: small tags and cut ends) VHH: EVQLVESGGGLVQTGDSLRLSCAALGGTPSTYAIGWFRQAAGKELQFVARITWNGDTWYADALPGRVAISRDNAKKTVYLQMNNLKPEDTAEYICAADVSEFRDIPNRDSRANYRYWGQGTQVTVSS	0.147
pgXX88-84 (VHH, not shown: small tags and cut ends) VHH: EVQLVESGGRLVQAGDSLKLSCTASGRTFSDYVMGWFRQVPGEGRLMVAVITPAGDTTEYADAVKGRFSISKDSAKRTVNLQMNNLKVDDTAVYYCAAGPSWIGMQFGTAEYWGQGTQVTVSS	0.29

Report measured OD450; entry is pgXX88-2 (VHH, not shown: small tags and cut ends) VHH: EVQLVESGGGLVQPGGSLRLSCAASGFAFGDIPMMWVRQAPGKGREWVSSISADSATQSYADSVQDRFTISRDNAKNTLYLEMHILKPEDTAVYYCATTDRPPPGQGTQVTVSS
1.46

Output measured OD450 for this item: pgXX88-19 (VHH, not shown: small tags and cut ends) VHH: EVQLVESGGGLVQAGGSLRLSCVATGRTRSSTYIMAWFRQAPGKERDFVAAISFIGGSPVYTDSVKGRFTISRVIAENTVHLQMNDLTPEDTALYYCAATDSGPLGPSGPSKYEYWGQGTQVTVSS
1.38

Tell me measured OD450 for pgXX88-16 (VHH, not shown: small tags and cut ends) VHH: QVQLVESGGGLVQAGESLNLSCSASGSIRNNAVAWFRQGPGNQRLRVAAITNTGTTDYADSVQGRFSIARDNAENTVTLQMNSLKPEDTAIYYCKIYTLPVPISSHDDTWGQGTQVTVSS please.
1.4

Given pgXX88-SZ-4 (VHH, not shown: small tags and cut ends, also called ppXX88-SZ-4) VHH: QVQLVESGGGLAQPGSSLRLSCTASGTVFSILSATWFRQAPGKAHEARELVAFISSDGVSMHADSVKGRFTISRDNAASTVYLQMDNLQPEDTAVYFCKLSNSMMSLEYWGRGTQVTVSS , respond with its OD450.
0.463
